# activity at 25 µM per record follows
- Tested on: M. mycetomatis genome strain MM55
- Test: CLSI M38-A2 based in vitro susceptibility screening (XTT or resazurin), growth at fixed concentration
- Format: cell-based, Madurella mycetomatis
- Test Context: Madurella mycetomatis, 25 uM, replicate A; read-out: Percentage survival at 25um, 25 um A
Your answer should be a plain number; it is taken to be in %.

[[record]]
query_smiles = "CC(C)Oc1cccc(NC(=O)c2ccccc2C(F)(F)F)c1"
unit_annotation = "%"
measured_number = 87.9

[[record]]
query_smiles = "C[C@@H]1O[C@@H]1P(=O)(O)O"
unit_annotation = "%"
measured_number = 88.5


Let's switch to this compound now.
Lab note: measured activity at 25 µM of C[C@@H](O)[C@H](N)C(=O)NS(=O)(=O)c1cccc(-c2ccc3[nH]ncc3c2)c1 was 91.3

###

Consider the following molecules and their measured activity at 100 µM readings.
- System: M. mycetomatis genome strain MM55
- Test: CLSI M38-A2 based in vitro susceptibility screening (XTT or resazurin), growth at fixed concentration
- Type: cell-based, Madurella mycetomatis
- Test Context: Madurella mycetomatis, 100 uM, mean of three replicates; read-out: Percentage survival at 100um, 100 uM mean
// units = %; emit number, no label

[[record]]
molecule = "O=P(O)(O)C(CCCc1cccc(Oc2ccccc2)c1)S(=O)(=O)O (stereo not shown)"
property_label = "activity at 100 µM"
unit_annotation = "%"
measured_number = 68.9


Reported activity at 100 µM ( COc1ccc2c(c1OC)C(=O)OC2C1c2c(cc3c(c2OC)OCO3)CCN1C (stereo not shown) ) = 72.6

Item: Cc1ncc([N+](=O)[O-])n1CC(O)CN1CCOCC1 (stereo not shown) | activity at 100 µM: 94.6

Briefly, activity at 100 µM measured for N[C@@H]1CN(c2c(F)cc3c(=O)c(C(=O)O)cn([C@@H]4C[C@@H]4F)c3c2Cl)CC12CC2 : 83.7

For reference, reported activity at 100 µM for O=C(Nc1nnc(-c2ccc(Cl)cc2)o1)c1nc2ccccc2s1 stands at 73.2

The value of activity at 100 µM measured for the molecule CC(C)(C)c1ccc(Oc2ccc(N)cc2)cc1 turned out to be 2.41

###

- Test system: M. mycetomatis genome strain MM55
- Test: CLSI M38-A2 based in vitro susceptibility screening (XTT or resazurin), growth at fixed concentration
- Type: cell-based, Madurella mycetomatis
- Test Context: Madurella mycetomatis, 100 uM, replicate (first column); read-out: Percentage survival at 100um, 100 uM A
Property Label: activity at 100 µM (%)
Value expressed in %; do not type the unit.

Worked cases, answers included:
[[record]]
compound = "Oc1cc(-c2cccc3ccccc23)[nH]n1"
measured_number = 88.2

[[record]]
compound = "O=C(NC(=O)N1CCCc2ccccc21)c1cccc(Cl)c1"
measured_number = 73.9

[[record]]
compound = "O[C@@](Cn1cnnn1)(c1ccc(F)cc1F)C(F)(F)c1ccc(-c2ccc(OCC(F)(F)F)cc2)cn1 [MMV1634386, Oteseconazole, reference compound]"
measured_number = -1.99

[[record]]
compound = "COC(=O)Nc1nc2ccc(Sc3ccccc3)cc2[nH]1"
measured_number = 0.376

[[record]]
compound = "CCNC(=O)Nc1cc(-c2ccccc2)c(-c2cncc(C(=O)O)c2)cn1"
measured_number = 4.59


Record summary for CC(C)(C)c1cccc(-c2nc3cc(C(=N)N)ccc3[nH]2)c1O : reported activity at 100 µM = -0.0188

Consider CN(C/C=C/C#CC(C)(C)C)Cc1cccc2ccccc12 . Its measured activity at 100 µM is 86.8

Per the records, this compound ( C[C@H]1[C@@H](c2cccc(C(F)(F)F)c2)OC(=O)N1C(=O)NCc1cncc2ccccc12 ) has activity at 100 µM equal to 6.17

# activity at 100 µM of C[C@@H](c1nc(-c2ccc(C#N)cc2)cs1)[C@](O)(Cn1cncn1)c1ccc(F)cc1F = -3.18

Lab note: CC(C)Oc1cccc(NC(=O)c2ccccc2C(F)(F)F)c1 gave activity at 100 µM of 26.3

###

- Test system: M. mycetomatis genome strain MM55
- Test: CLSI M38-A2 based in vitro susceptibility screening (XTT or resazurin), growth at fixed concentration
- Format: cell-based, Madurella mycetomatis
- Test Context: Madurella mycetomatis, 100 uM, replicate (first column); read-out: Percentage survival at 100um, 100 uM A
// returns no unless activity at 100 µM is strictly below 80%, in which case yes

[[record]]
compound = "O=C(O)c1ccc(-n2nc(-c3ccccc3O)nc2-c2ccccc2O)cc1"
label = "no"


Record COC(=O)Nc1nc2ccc([S+]([O-])c3ccccc3)cc2[nH]1 (centres unmarked) [MMV002565, Oxfendazole, reference compound] : is its activity at 100 µM strictly below 80%?
no

Please let me know if Fc1ccc2c(/C=C/c3cccnc3)c[nH]c2c1 shows activity at 100 µM below 80%.
no

In plain terms, does CC(C)(C)c1ccc(C(=O)NC(=O)N2CCCc3ccccc32)cc1 come in under 80% for activity at 100 µM?
yes

Consider the compound CCCCSc1nc(N)c2[nH]c(=O)c(=O)n(Cc3ccccc3)c2n1 . Is its activity at 100 µM strictly less than 80%?
no

###

Entries and their activity at 25 µM
- System: M. mycetomatis genome strain MM55
- Test: CLSI M38-A2 based in vitro susceptibility screening (XTT or resazurin), growth at fixed concentration
- Format: cell-based, Madurella mycetomatis
- Test Context: Madurella mycetomatis, 25 uM, replicate A; read-out: Percentage survival at 25um, 25 um A
Response body: numeric value in %, unit text excluded.

Examples from the recorded data:
[[record]]
compound = "COc1nc2ccc(Br)cc2cc1[C@@H](c1ccccc1)[C@@](O)(CCN(C)C)c1cccc2ccccc12"
property_label = "activity at 25 µM"
measured_number = 102

[[record]]
compound = "Cc1nc2ccc(Oc3ccccc3)cc2c2c1CCN2CCc1ccccc1"
property_label = "activity at 25 µM"
measured_number = -3.19

[[record]]
compound = "COc1ccc(COc2cc3oc(=O)c4cc(C(C)O)ccc4c3cc2OC)cc1 (centres unmarked)"
property_label = "activity at 25 µM"
measured_number = 100

[[record]]
compound = "Cc1cc(C)n2nc(C(=O)NS(=O)(=O)c3c(C)cccc3OC(F)(F)F)nc2n1"
property_label = "activity at 25 µM"
measured_number = 98.2

[[record]]
compound = "CCc1nc2ccc(Cl)cn2c1C(=O)NCc1ccc(N2CCC(c3ccc(OC(F)(F)F)cc3)CC2)cc1"
property_label = "activity at 25 µM"
measured_number = 95


Kindly note the recorded activity at 25 µM for Cc1cc(NS(=O)(=O)c2ccc(-c3ccc(F)cc3F)cc2)no1 , which is 76.3

Notebook: Cc1cc(C2CCCCC2)n(O)c(=O)c1 , activity at 25 µM read as -3.44

The measured activity at 25 µM associated with CC[C@@]1(O)C(=O)OCc2c1cc1n(c2=O)Cc2cc3c(CN(C)C)c(O)ccc3nc2-1 reads 86.9

###

Recorded activity at 25 µM for the following compounds
- Tested on: M. mycetomatis genome strain MM55
- Test: CLSI M38-A2 based in vitro susceptibility screening (XTT or resazurin), growth at fixed concentration
- Format: cell-based, Madurella mycetomatis
- Test Context: Madurella mycetomatis, 25 uM, replicate A; read-out: Percentage survival at 25um, 25 um A
Express it in %; write the number only.

Field: example entries. Status: answers known.
[[record]]
query_smiles = "Nc1nc(=O)c(Br)c(-c2cccc(Cl)c2)[nH]1"
measured_target = "M. mycetomatis genome strain MM55"
measured_number = 79.7

[[record]]
query_smiles = "O=C(O)CCNC(=O)c1ccccc1"
measured_target = "M. mycetomatis genome strain MM55"
measured_number = 90.2

[[record]]
query_smiles = "O=C(O)c1ccccc1Sc1ncnc2sc3c(c12)CCC3"
measured_target = "M. mycetomatis genome strain MM55"
measured_number = 89.3

[[record]]
query_smiles = "O=C(Nc1cccc(C2=NCCN2)c1)c1ccc(-c2ccc(C(=O)Nc3cccc(C4=NCCN4)c3)cc2)cc1"
measured_target = "M. mycetomatis genome strain MM55"
measured_number = 92.1

[[record]]
query_smiles = "Clc1cccc(-c2nnc(-c3ccccc3)o2)c1"
measured_target = "M. mycetomatis genome strain MM55"
measured_number = 78.3


Field activity at 25 µM (entry Cc1nc2ccc(Cl)cc2c(-c2ccccc2)c1CC(=O)O ) reads 87.4

Per the records, this compound ( COc1cc(C(C)(C)CCCC(C)C)cc(OC)c1OC ) has activity at 25 µM equal to 88.5

activity at 25 µM in this record for O=[N+]([O-])c1cn2c(n1)OC[C@@H](OCc1ccc(OC(F)(F)F)cc1)C2 : 91.8

// field: activity at 25 µM; key: Cc1cc(C)n(O)c(=O)c1 ; value = 87.4

Entry under test: COc1ccc2c(c1)cc(CNC(=O)c1cc3ccccc3o1)n2CC(=O)O . Its activity at 25 µM was 87.4

These data points were gathered from paper PMC8815882.
